Entry source: paper PMC9826610

- assay_protocol: Kinetic aqueous solubility by LC-MS/MS
- condition: pH 7.4
reported_endpoint: solubility at 6 h

> print(dat)
                      smiles.representation     result
1  O=c1cc(C(F)(F)F)[nH]c2cc(C(F)(F)F)cc(Nc3ccc(C(F)(F)F)cn3)c12  2.4 ng/mL

----------
- Test system: methicillin-resistant S. aureus (FPR3757)
- assay_protocol: MIC against methicillin-resistant S. aureus
- Assay type: cell-based, Staphylococcus aureus
- condition: Staphylococcus aureus, complete inhibition of observable growth, Mueller–Hinton broth
Overview of reported MIC across a group of compounds:
reported_endpoint: MIC

> print(dat)
                      smiles.representation               result
1  Fc1ccc(Nc2nc(C(F)(F)F)nc3nc(C(F)(F)F)ccc23)cc1F           ≥ 32 µg/mL
2  Fc1ccc2c(Nc3ccc(Cl)c(Cl)c3)cc(C(F)(F)F)nc2c1       0.5 to 2 µg/mL
3  FC(F)(F)c1ccc(Nc2cc(N3CCNCC3)nc3cc(C(F)(F)F)ccc23)nc1       0.5 to 1 µg/mL
4             COc1ccc2c(O)cc(C(F)(F)F)nc2c1     320 to 640 µg/mL
5  Fc1ccc2nc(C(F)(F)F)cc(Nc3ccc(C(F)(F)F)cn3)c2c1F       16 to 32 µg/mL
6  FC(F)(F)c1ccc(Nc2cc(N3CCOCC3)c3ccc(C(F)(F)F)cc3n2)nc1         4 to 8 µg/mL
7  FC(F)(F)c1ccc2c(Nc3ccc(Cl)cc3)cc(C(F)(F)F)nc2c1  0.125 to 0.25 µg/mL
8             CSc1ccc2c(O)cc(C(F)(F)F)nc2c1     320 to 640 µg/mL
9  Fc1cccc(Nc2cc(C(F)(F)F)nc3cc(C(F)(F)F)ccc23)c1        4 to 16 µg/mL
